Test system: SF-539 CNS
Assay: NCI-60 one-dose screen, 48 h (100 = growth as untreated, 0 = no growth, -100 = all killed)
Settings: 10 µM
Description: Cells are grown in 96 well plates and exposed to the test compound for 48 hours. Compounds are tested at a single concentration, which is 10^-5 M for most compounds. The reported endpoint is percent growth (GI% or GIPRCNT), where numbers from 0 - 100% represent growth inhibition, and numbers from -100% - 0 represent cell death. For example, a value of 40 represents 60% growth inhibition. A value of 0 means no net growth occurred over the course of the experiment. […]
Compounds without any hit were thinned out: in the full panel of roughly 83,000, 20% have a hit.
Can you tell me growth for the items I'm about to list?
Note: unit % is implicit; provide only the numeric part.

Notebook: `CN(C)c1ccc(/C=C/c2ccnc3ccccc23)cc1N` , growth read as 76.9

Lookup result for `N#CC(=C1C=CC(=NO)C=C1)c1ccccc1` ; measured growth: -58.7

Form: compound = `O=C(CNS(=O)(=O)Cc1ccccc1)NNc1ccccc1` ; growth = 61.4

Form field growth, entry `O=C(O)c1ccccc1.[Ag]` : 106

So, COc1cccc(C(c2cc3c(cc2O)OCO3)N2CCOCC2)c1OC (stereo unspecified) ? Its growth was 96.5

Short answer for `COc1ccc2oc(-c3ccc(Cl)cc3)c(N3CCN(C)CC3)c2c1` : growth was -6.28

Quick note, growth for `COc1ccc(N)c2c1C(=O)c1ccccc1C2=O` landed at 101

Per the record, `CC[C@@]1(OC(=O)CN(C)C)C(=O)OCc2c1cc1n(c2=O)Cc2cc3c(N)cccc3nc2-1` has growth of -30.9

Reported growth of `Nc1nc(N)c2cc(Sc3ccc4ccccc4c3)ccc2n1` : 33.2

Record CC1CCC2(C(=O)O)CCC3(C)C(=CCC4C5(C)CC(O)C(O)C(C)(CO)C5C(O)CC43C)C2C1C (stereo unspecified) . Reported growth: 99.6

`ClCCn1c(CCl)nc2ccc(Cl)cc21` yielded growth of -43.9
